// values below are reported hsa-miR-29a-5p fold change, intracellular
- Tested on: hiPSC-CM (iCell Cardiomyocytes^2)
- Protocol: Intracellular miRNA expression by RT-qPCR in hiPSC-CM pellets after 72-hour treatment
- Assay Setup: 1 µM, 72 h
Where a name gives a salt, the structure may show the parent alone.
Readout Name: hsa-miR-29a-5p fold change, intracellular

| Compound | Measured On | Result |
| --- | --- | --- |
| CC(C)C[C@H](NC(=O)CNC(=O)c1cc(Cl)ccc1Cl)B1OC(=O)C(CC(=O)O)(CC(=O)O)O1 [Ixazomib Citrate] | hiPSC-CM (iCell Cardiomyocytes^2) | 4.7 |
| Cc1cn(-c2cc(NC(=O)c3ccc(C)c(Nc4nccc(-c5cccnc5)n4)c3)cc(C(F)(F)F)c2)cn1 [Nilotinib] | hiPSC-CM (iCell Cardiomyocytes^2) | 0.4 |
| CC(C)C[C@H](NC(=O)[C@H](CCc1ccccc1)NC(=O)CN1CCOCC1)C(=O)N[C@@H](Cc1ccccc1)C(=O)N[C@@H](CC(C)C)C(=O)[C@@]1(C)CO1 [Carfilzomib] | hiPSC-CM (iCell Cardiomyocytes^2) | 1.4 |
| Cc1nc(Nc2ncc(C(=O)Nc3c(C)cccc3Cl)s2)cc(N2CCN(CCO)CC2)n1 [Dasatinib] | hiPSC-CM (iCell Cardiomyocytes^2) | 3.6 |

---

A collection of compounds and their measured hsa-miR-185-3p fold change, intracellular
- System: hiPSC-CM (iCell Cardiomyocytes^2)
- Protocol: Intracellular miRNA expression by RT-qPCR in hiPSC-CM pellets after 72-hour treatment
- Assay Setup: 0.3 µM, 72 h
Where a name gives a salt, the structure may show the parent alone.
Readout Name: hsa-miR-185-3p fold change, intracellular

| Compound | Result |
| --- | --- |
| CC(C)C[C@H](NC(=O)CNC(=O)c1cc(Cl)ccc1Cl)B1OC(=O)C(CC(=O)O)(CC(=O)O)O1 [Ixazomib Citrate] | 2.0 |
| CC[C@]1(O)C[C@H]2CN(CCc3c([nH]c4ccccc34)[C@@](C(=O)OC)(c3cc4c(cc3OC)N(C=O)[C@H]3[C@@](O)(C(=O)OC)[C@H](OC(C)=O)[C@]5(CC)C=CCN6CC[C@]43[C@@H]65)C2)C1 | 1.1 |
| Cc1nc(Nc2ncc(C(=O)Nc3c(C)cccc3Cl)s2)cc(N2CCN(CCO)CC2)n1 | 6.4 |
| Cc1cn(-c2cc(NC(=O)c3ccc(C)c(Nc4nccc(-c5cccnc5)n4)c3)cc(C(F)(F)F)c2)cn1 | 0.7 |
| CC(C)C[C@H](NC(=O)[C@H](CCc1ccccc1)NC(=O)CN1CCOCC1)C(=O)N[C@@H](Cc1ccccc1)C(=O)N[C@@H](CC(C)C)C(=O)[C@@]1(C)CO1 | 1.1 |

---

Overview of reported Spike Amplitude (SA) MEC across a group of compounds:
- System: hiPSC-CM (iCell Cardiomyocytes^2)
- Protocol: RTCA CardioECR assessment (impedance and electrophysiology parameters)
- Assay Setup: human, 72 h
Readout Name: Spike Amplitude (SA) MEC (µM)

| Compound | Units Text | Result |
| --- | --- | --- |
| N=C(N)c1ccc(OCCCCCOc2ccc(C(=N)N)cc2)cc1 | µM | 0.1 |
| CCN(CC)CCNC(=O)c1c(C)[nH]c(/C=C2\C(=O)Nc3ccc(F)cc32)c1C | µM | 0.01 |
| CCC1=C[C@@H]2CN(C1)Cc1c([nH]c3ccccc13)[C@@](C(=O)OC)(c1cc3c(cc1OC)N(C)[C@H]1[C@@](O)(C(=O)OC)[C@H](OC(C)=O)[C@]4(CC)C=CCN5CC[C@]31[C@@H]54)C2 | µM | 0.1 |
| CC[C@]1(O)C[C@H]2CN(CCc3c([nH]c4ccccc34)[C@@](C(=O)OC)(c3cc4c(cc3OC)N(C=O)[C@H]3[C@@](O)(C(=O)OC)[C@H](OC(C)=O)[C@]5(CC)C=CCN6CC[C@]43[C@@H]65)C2)C1 | µM | 0.003 |
| CCCN1C[C@H](CSC)C[C@@H]2c3cccc4[nH]cc(c34)C[C@H]21 [Pergolide] | µM | 10 |
| Cc1[nH]c(=O)c(C#N)cc1-c1ccncc1 | µM | 0.1 |
| COc1cccc2c1C(=O)c1c(O)c3c(c(O)c1C2=O)C[C@@](O)(C(=O)CO)C[C@@H]3O[C@H]1C[C@H](N)[C@H](O)[C@H](C)O1 | µM | 0.01 |
| CCCCCNC(=N)N/N=C/c1c[nH]c2ccc(OC)cc12 | µM | 0.01 |
| C#Cc1cccc(Nc2ncnc3cc(OCCOC)c(OCCOC)cc23)c1 | µM | 0.23 |
| COc1cc([C@@H]2c3cc4c(cc3[C@@H](O[C@@H]3O[C@@H]5CO[C@@H](C)O[C@H]5[C@H](O)[C@H]3O)[C@H]3COC(=O)[C@H]23)OCO4)cc(OC)c1O [Etoposide] | µM | 0.3 |
| CC[C@]1(O)C[C@@H]2CN(CCc3c([nH]c4ccccc34)[C@@](C(=O)OC)(c3cc4c(cc3OC)N(C)[C@H]3[C@@](O)(C(=O)OC)[C@H](OC(C)=O)[C@]5(CC)C=CCN6CC[C@]43[C@@H]65)C2)C1 | µM | 0.0003 |
| O=C1c2c(O)ccc(O)c2C(=O)c2c(NCCNCCO)ccc(NCCNCCO)c21 | µM | 0.1 |
| Cc1nc(Nc2ncc(C(=O)Nc3c(C)cccc3Cl)s2)cc(N2CCN(CCO)CC2)n1 | µM | 0.3 |

---

The following compounds are listed with their measured hsa-miR-96-5p fold change, intracellular values.
- Tested on: hiPSC-CM (iCell Cardiomyocytes^2)
- Protocol: Intracellular miRNA expression by RT-qPCR in hiPSC-CM pellets after 72-hour treatment
- Assay Setup: 1 µM, 72 h
Counter-ions that a name gives are not always drawn.
Readout Name: hsa-miR-96-5p fold change, intracellular

| Compound | Result |
| --- | --- |
| CC(C)C[C@H](NC(=O)[C@H](CCc1ccccc1)NC(=O)CN1CCOCC1)C(=O)N[C@@H](Cc1ccccc1)C(=O)N[C@@H](CC(C)C)C(=O)[C@@]1(C)CO1 | 5.6 |
| Cc1nc(Nc2ncc(C(=O)Nc3c(C)cccc3Cl)s2)cc(N2CCN(CCO)CC2)n1 | 4.7 |
| Cc1cn(-c2cc(NC(=O)c3ccc(C)c(Nc4nccc(-c5cccnc5)n4)c3)cc(C(F)(F)F)c2)cn1 | 1.4 |
| CC(C)C[C@H](NC(=O)CNC(=O)c1cc(Cl)ccc1Cl)B1OC(=O)C(CC(=O)O)(CC(=O)O)O1 [Ixazomib Citrate] | 13.4 |

---

- System: hiPSC-CM (iCell Cardiomyocytes^2)
- Protocol: Intracellular miRNA expression by RT-qPCR in hiPSC-CM pellets after 72-hour treatment
- Assay Setup: 1 µM, 72 h
Where a name gives a salt, the structure may show the parent alone.
# hsa-miR-187-3p fold change, intracellular per entry
Readout Name: hsa-miR-187-3p fold change, intracellular

| Molecule | Measured On | Result |
| --- | --- | --- |
| CC(C)C[C@H](NC(=O)[C@H](CCc1ccccc1)NC(=O)CN1CCOCC1)C(=O)N[C@@H](Cc1ccccc1)C(=O)N[C@@H](CC(C)C)C(=O)[C@@]1(C)CO1 [Carfilzomib] | hiPSC-CM (iCell Cardiomyocytes^2) | 1.7 |
| CC(C)C[C@H](NC(=O)CNC(=O)c1cc(Cl)ccc1Cl)B1OC(=O)C(CC(=O)O)(CC(=O)O)O1 [Ixazomib Citrate] | hiPSC-CM (iCell Cardiomyocytes^2) | 2.4 |
| Cc1cn(-c2cc(NC(=O)c3ccc(C)c(Nc4nccc(-c5cccnc5)n4)c3)cc(C(F)(F)F)c2)cn1 [Nilotinib] | hiPSC-CM (iCell Cardiomyocytes^2) | 0.7 |
| Cc1nc(Nc2ncc(C(=O)Nc3c(C)cccc3Cl)s2)cc(N2CCN(CCO)CC2)n1 [Dasatinib] | hiPSC-CM (iCell Cardiomyocytes^2) | 0.5 |

---

- Test system: hiPSC-CM (iCell Cardiomyocytes^2)
- Protocol: Intracellular miRNA expression by RT-qPCR in hiPSC-CM pellets after 72-hour treatment
- Assay Setup: Homo sapiens, 72 h, read-out: hsa-miR-7-5p fold change
- Protocol: Culture media change was performed every 2 days. Total RNA was extracted from hiPSC-CM using the miRNeasy 96 Kit (Qiagen, Hilden, Germany) following the manufacturer’s recommendations. After the extraction, RNA purity was assessed by NanoDrop™ 8000 Spectrophotometer (Thermo Fisher Scientific Inc.). 5–10 ng/μL of RNA per sample were reverse transcribed and pre-amplified by using the TaqMan™ Advanced miRNA cDNA Synthesis Kit (Thermo Fisher Scientific Inc.). […]
Readout Name: fold induction at 1 µM

| Compound | Result |
| --- | --- |
| O=c1[nH]cc(F)c(=O)[nH]1 [5-FluoroUracil] | 0.5 |
| CC(=O)[C@]1(O)Cc2c(O)c3c(c(O)c2[C@@H](O[C@H]2C[C@H](N)[C@H](O)[C@H](C)O2)C1)C(=O)c1ccccc1C3=O [Idarubicin] | 3.5 |
| COc1nc(N)nc2c1ncn2[C@@H]1O[C@H](COP(=O)(N[C@@H](C)C(=O)OCC(C)(C)C)Oc2cccc3ccccc23)[C@@H](O)[C@@]1(C)O (some centres unmarked) [BMS-986094] | 1.3 |
| CCCN1C[C@H](CSC)C[C@@H]2c3cccc4[nH]cc(c34)C[C@H]21 [Pergolide] | 0.7 |
| CCC1=C[C@@H]2CN(C1)Cc1c([nH]c3ccccc13)[C@@](C(=O)OC)(c1cc3c(cc1OC)N(C)[C@H]1[C@@](O)(C(=O)OC)[C@H](OC(C)=O)[C@]4(CC)C=CCN5CC[C@]31[C@@H]54)C2 [Vinorelbine] | 0.9 |
